- system_under_test: SARS-CoV-2 nsp16/nsp10 (Severe acute respiratory syndrome coronavirus 2, UniProt P0DTD1)
- experimental_protocol: biochemical
- condition_info: 100 μM
Recorded Percent inhibition at 100 μM, nsp16 by entry
Give the number; % is assumed, so skip it.

Observe how each entry below is paired with its result.
Cn1nc(CC(=O)NCCCc2nnc3ccccn23)c2ccccc2c1=O = -53
O=C(Cn1ccc(=O)c2ccccc21)NCCSc1cnn[nH]1 = 51

Note down Percent inhibition at 100 μM, nsp16 recorded for Cc1[nH]c(-c2ccccc2)nc1C(=O)NCc1ccc2[nH]c(=O)[nH]c2c1
23

Provide only the value of recorded Percent inhibition at 100 μM, nsp16 for CC(=O)N1N=C(c2ccc3c(c2)OCO3)CC1c1cn(-c2ccccc2)nc1C (stereo not drawn)
15

Using known records, supply Percent inhibition at 100 μM, nsp16 for CN1CC(=O)N(c2cccc(NC(=O)NC[C@H](O)CO)c2)C1=O
30

Supply measured Percent inhibition at 100 μM, nsp16 of O=C(Nc1ccccc1-c1ccccc1)C1CCCN(c2ccc(-n3cncn3)nn2)C1 (stereo not drawn) in your reply.
10

Look up and report measured Percent inhibition at 100 μM, nsp16 for this entry: O=C(O)CCC(=O)Nc1nc2n(n1)C(c1ccccc1)CC(=O)N2 (stereo not drawn)
-77

Tell me Percent inhibition at 100 μM, nsp16 reported for CN(CC1CCN(c2ccccc2)C1)S(=O)(=O)c1ccc2[nH]c(=O)oc2c1 (stereo not drawn)
38

Determine from records and report Percent inhibition at 100 μM, nsp16 for Nc1ncnc2c1ncn2CC(O)CO (stereo not drawn)
-34

Give a short answer stating reported Percent inhibition at 100 μM, nsp16 for CN(Cc1cccc2cnccc12)C(=O)CCC1(CCC(=O)O)CCC(=O)N1 (stereo not drawn) .
31

Query Percent inhibition at 100 μM, nsp16 for CC(C)Cn1c(CNC(=O)c2ccccc2C(F)(F)F)nnc1SCc1ccncc1
19

====

- system_under_test: SARS-CoV-2 nsp16/nsp10 (Severe acute respiratory syndrome coronavirus 2)
- experimental_protocol: biochemical
- condition_info: HTRF, nsp16/nsp10, SAM 10 µM, m7GpppA-RNA; read-out: IC50 nsp16
Let's look at some compounds and their measured IC50.
Please state the figure in nM; there is no need to write the unit.

// known answers, use as guide
Nc1ncnc2c1ncn2[C@@H]1O[C@H](COC(=O)c2ccc(S(=O)(=O)F)cc2)[C@@H](O)[C@H]1O [ZINC000048222133] = 105000
CCNC(=O)NCCSC[C@H]1O[C@@H](n2cnc3c(N)ncnc32)[C@H](O)[C@@H]1O [ZINC473112262] = 2460

Next up:
Report measured IC50; entry is Cc1ccc(S(=O)(=O)OC[C@H]2O[C@@H](n3cnc4c(N)ncnc43)[C@H](O)[C@@H]2O)cc1 [ZINC3861767]
1140

====

- system_under_test: SARS-CoV-2 nsp16/nsp10 (Severe acute respiratory syndrome coronavirus 2, UniProt P0DTD1)
- experimental_protocol: biochemical
- condition_info: 100 μM
# Percent inhibition at 100 μM, nsp16 annotations
Use % as the unit, but write only the number.

COc1c(C)c2c(c(O)c1CC=C(C)CCC(=O)Nc1nnc[nH]1)C(=O)OC2 [ZINC000096115284] = -68
CC[C@H](C)[C@H](N)C(=O)NS(=O)(=O)OC[C@H]1O[C@@H](n2cnc3c(N)ncnc32)[C@H](O)[C@@H]1O [ZINC000013488353] = 34
O=C(c1ccc2c3c([nH]c2c1)CCCC3)N1CCC[C@H]1c1nc(-c2ccncc2)no1 [ZINC000952966781] = 24

Output measured Percent inhibition at 100 μM, nsp16 for this item: Cc1nc2ccc(Cl)cc2cc1C(=O)Nc1ccc(C(N)=O)cc1 [ZINC000019718669]
66
